Each entry below carries its recorded viability, T/C.
system: 379773-124-R-J2-PDC spheroid viability; assay: Anticancer human tumor 379773-124-R-J2-PDC patient-derived endometrial carcinoma cell line growth inhibition [POLQ]; details: second compound 0.1 µM; first compound 0.1 µM; stronger effect = lower value; spheroids with HUVEC and MSC;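 further: spheroids exposed to drugs for seven days before readout; percent viability relative to DMSO vehicle control taken as 100%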
Reply with just the number (in %).

Reference set, count: 5
Molecule: CCCS(=O)(=O)Nc1ccc(F)c(C(=O)c2c[nH]c3ncc(-c4ccc(Cl)cc4)cc23)c1F + Nc1ccc(C#CCN(C(=O)Cc2ncc(C(F)(F)F)cc2C(F)(F)F)c2ccc(F)cc2)nn1
viability, T/C (%): 88.7

Molecule: CC1COCCN1c1cc(C2(O)CC3CCC(C2)O3)c2cnn(-c3ccn[nH]3)c2n1 (stereo unspecified) + COC1C(OC(N)=O)C(O)C(Oc2ccc3c(O)c(NC(=O)c4ccc(O)c(CC=C(C)C)c4)c(=O)oc3c2C)OC1(C)C
viability, T/C (%): 49.9

Molecule: CNCc1ccc(-c2[nH]c3cc(F)cc4c3c2CCNC4=O)cc1 + Nc1ccc(C#CCN(C(=O)Cc2ncc(C(F)(F)F)cc2C(F)(F)F)c2ccc(F)cc2)nn1
viability, T/C (%): 90.7

Molecule: C=CCn1c(=O)c2cnc(Nc3ccc(N4CCN(C)CC4)cc3)nc2n1-c1cccc(C(C)(C)O)n1 + Nc1ccc(C#CCN(C(=O)Cc2ncc(C(F)(F)F)cc2C(F)(F)F)c2ccc(F)cc2)nn1
viability, T/C (%): 111

Molecule: CCc1c2c(nc3ccc(O)cc13)-c1cc3c(c(=O)n1C2)COC(=O)[C@]3(O)CC + Cc1cccc(N(C)C(=O)C2C(O)CCN2c2nc(C)cc(C(F)(F)F)c2C#N)c1
viability, T/C (%): 3.61

Ask: Enter reported viability, T/C observed with 379773-124-R-J2-PDC spheroid viability for CNCc1ccc(-c2[nH]c3cc(F)cc4c3c2CCNC4=O)cc1 + COC1C(OC(N)=O)C(O)C(Oc2ccc3c(O)c(NC(=O)c4ccc(O)c(CC=C(C)C)c4)c(=O)oc3c2C)OC1(C)C
Result: 86.7

Ask: Enter reported viability, T/C observed with 379773-124-R-J2-PDC spheroid viability for O=c1[nH]cc(F)c(=O)[nH]1 + COC1C(OC(N)=O)C(O)C(Oc2ccc3c(O)c(NC(=O)c4ccc(O)c(CC=C(C)C)c4)c(=O)oc3c2C)OC1(C)C
Result: 88.8

Ask: Enter reported viability, T/C observed with 379773-124-R-J2-PDC spheroid viability for CCc1cc2c(N3CCc4c(cc(Cn5ccnc5)cc4-c4cn(C)nc4C(F)(F)F)C3=O)ccnc2c(OC)n1 + COC1C(OC(N)=O)C(O)C(Oc2ccc3c(O)c(NC(=O)c4ccc(O)c(CC=C(C)C)c4)c(=O)oc3c2C)OC1(C)C
Result: 64.2

Ask: Enter reported viability, T/C observed with 379773-124-R-J2-PDC spheroid viability for CNCc1ccc(-c2[nH]c3cc(F)cc4c3c2CCNC4=O)cc1 + Cc1cccc(N(C)C(=O)C2C(O)CCN2c2nc(C)cc(C(F)(F)F)c2C#N)c1
Result: 85.8

Ask: Enter reported viability, T/C observed with 379773-124-R-J2-PDC spheroid viability for O=C(c1cc(Cc2n[nH]c(=O)c3ccccc23)ccc1F)N1CCN(C(=O)C2CC2)CC1 + Nc1ccc(C#CCN(C(=O)Cc2ncc(C(F)(F)F)cc2C(F)(F)F)c2ccc(F)cc2)nn1
Result: 94.2

Ask: Enter reported viability, T/C observed with 379773-124-R-J2-PDC spheroid viability for CC1COCCN1c1cc(-c2ccnn2C)c2ccnc(-c3ccn[nH]3)c2n1 (stereo unspecified) + Nc1ccc(C#CCN(C(=O)Cc2ncc(C(F)(F)F)cc2C(F)(F)F)c2ccc(F)cc2)nn1
Result: 61.2

Taken from PubChem BioAssay AID1963848.
